Reference source for all entries: paper PMC9482650

biological target: MAGI3_2, Q5TCQ9; test: holdup assay; set-up: key: below the threshold = too weak to quantify, mostly under pKd 3.1 to 4; settings: plain residues with an end cap or a label only (N-terminal biotin on a linker: ado-ado)
Sequence (Q5TCQ9 398-503): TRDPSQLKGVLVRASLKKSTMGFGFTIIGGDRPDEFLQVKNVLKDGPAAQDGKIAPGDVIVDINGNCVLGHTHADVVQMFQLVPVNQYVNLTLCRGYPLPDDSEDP

Binder: YAEKRMLTEV [KCNA6, P17658]
pKd: 4.62
//
Binder: QLGSPTADLA [SIPA1, Q96FS4]
pKd: below the threshold
//
Binder: TKEIPNCTSV [SORCS3, Q9UPU3]
pKd: 4.67
//
Binder: PSVYSRSQYV [CLDN8, P56748]
pKd: 3.52
//
Binder: SQDPKKPSRV [CBY2, Q8NA61]
pKd: 4.44
//
Binder: AKADAQESRL [PLCB2, Q00722]
pKd: below the threshold
//
Binder: DYSNLRETDI [ADRA1D, P25100]
pKd: below the threshold
//
Binder: ELKAEDEVQI [DCHS2, Q6V1P9]
pKd: below the threshold
//
Binder: RSPVATATSC [DUSP5, Q16690]
pKd: below the threshold
//
Binder: TNSKQGETTV [FZD1, Q9UP38]
pKd: 4.94
//
Binder: EKPIDSETKM [SLC1A3, P43003]
pKd: below the threshold
//
Binder: SQPLLVHDDV [KIT, P10721]
pKd: below the threshold
//
Binder: SKQFDKNAYV [CLDN10, P78369]
pKd: 3.67
//
Binder: KKTPVSRSHL [SLC22A3, O75751]
pKd: below the threshold
//
Binder: GTMFLRETSL [GUCY1A2, P33402]
pKd: 4.46
//
Binder: LLQEEWETVM [PTH1R, Q03431]
pKd: below the threshold
//
Binder: FHSIKQSTAV [CRHR1, P34998]
pKd: 5.01
//
Binder: GNDPDRGTSI [GRID2, O43424]
pKd: below the threshold
//
Binder: AHGSTRDQSI [KCNB1, Q14721]
pKd: below the threshold
//
Binder: PAALPESTHM [SLC9A3, P48764]
pKd: below the threshold
//
Binder: MLPANYVEAI [NEB, P20929]
pKd: below the threshold
//
Binder: PDSYHRRDFW [U2AF2, P26368]
pKd: below the threshold
//
Binder: NTALVESEDL [PALLS, Q8WX93;Q8WX93-1]
pKd: below the threshold
//
Binder: PGKKPEDSRV [SLCO2B1, O94956]
pKd: 3.54
//
Binder: EPAKETTTNV [SLC2A3, P11169]
pKd: below the threshold
//
Binder: QQGLLPHSSC [TYRO3, Q06418]
pKd: below the threshold
//
Binder: GVHSNDHSVV [LPAR1, Q92633]
pKd: below the threshold
//
Binder: VKQYADVEGF [HNRNPK, P61978;P61978-2]
pKd: below the threshold
//
Binder: DLLGGGSDSI [TNRC6B, Q9UPQ9]
pKd: below the threshold
//
Binder: HLSTRQGTCV [ATRNL1, Q5VV63]
pKd: 5.16
//
Binder: PLPPEEESWV [GAS2L2, Q8NHY3]
pKd: 4.38
//
Binder: EFKQTSSFLV [JAM1, Q9Y624]
pKd: below the threshold
